target: Human recombinant FAP (Homo sapiens, UniProt Q12884); test: FRET-based FAP protease activity assay (human); type: biochemical; design: purchased R&D systems 3715-SE; conditions: FRET-peptide substrate, 37°C
Sequence (Q12884 whole entry): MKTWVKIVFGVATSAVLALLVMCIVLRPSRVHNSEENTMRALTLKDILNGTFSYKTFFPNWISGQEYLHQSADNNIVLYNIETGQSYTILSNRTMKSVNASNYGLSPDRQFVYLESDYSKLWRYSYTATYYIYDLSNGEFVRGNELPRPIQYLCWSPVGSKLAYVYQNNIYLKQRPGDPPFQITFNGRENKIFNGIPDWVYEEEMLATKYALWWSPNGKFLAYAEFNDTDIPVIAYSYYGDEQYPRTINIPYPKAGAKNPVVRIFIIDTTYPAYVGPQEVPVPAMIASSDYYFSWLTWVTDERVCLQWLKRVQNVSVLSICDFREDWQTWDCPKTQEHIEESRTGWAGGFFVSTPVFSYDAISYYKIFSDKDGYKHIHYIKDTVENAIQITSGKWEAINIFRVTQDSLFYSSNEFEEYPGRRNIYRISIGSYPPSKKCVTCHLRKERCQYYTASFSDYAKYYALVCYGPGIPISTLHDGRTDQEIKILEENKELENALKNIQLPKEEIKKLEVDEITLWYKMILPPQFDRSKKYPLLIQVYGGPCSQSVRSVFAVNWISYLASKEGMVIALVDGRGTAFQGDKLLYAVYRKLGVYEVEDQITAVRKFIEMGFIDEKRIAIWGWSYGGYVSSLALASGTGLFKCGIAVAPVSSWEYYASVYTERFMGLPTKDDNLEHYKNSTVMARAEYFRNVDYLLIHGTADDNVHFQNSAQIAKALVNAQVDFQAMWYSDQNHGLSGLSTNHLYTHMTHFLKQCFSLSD
The entries below come with measured pIC50 (Activity) values attached.

molecule="O=C(O)CN1CCN(CC(=O)O)CCN(CC(=O)N2CCN(CCCOc3ccc4nccc(C(=O)NCC(=O)N5C[C@@H](F)C[C@H]5C(=O)c5nc6ccccc6o5)c4c3)CC2)CCN(CC(=O)O)CC1 [drawing 358]" data_value=9
molecule="O=C(O)CN1CCN(CC(=O)O)CCN(CC(=O)N2CCN(CCNC(=O)c3ccc(-c4ccc5c(C(=O)NCC(=O)N6CCC[C@H]6C(=O)c6nc7ccccc7o6)ccnc5c4)cc3)CC2)CCN(CC(=O)O)CC1 [drawing 355]" data_value=8.7
molecule=O=C(O)CN1CCN(CC(=O)O)CCN(CC(=O)N2CCN(CCCOc3ccc4nccc(C(=O)NCC(=O)N5CC(F)(F)C[C@H]5C(=O)c5nc6ccccc6o5)c4c3)CC2)CCN(CC(=O)O)CC1 data_value=8.6
molecule=N#C[C@@H]1CCCN1C(=O)CNC(=O)c1cc[n+]([O-])c2ccccc12 data_value=7.6
molecule=O=C(O)CN1CCN(CC(=O)O)CCN(CC(=O)NCCCNC(=O)c2ccc(-c3ccc4nccc(C(=O)NCC(=O)N5CCC[C@H]5C(=O)c5nc6ccccc6o5)c4c3)cc2)CCN(CC(=O)O)CC1 data_value=8.8

Task item: # lookup: pIC50 (Activity) of `N#C[C@@H]1CC(F)(F)CN1C(=O)CNC(=O)c1ccnc2ccc(-c3ccc(C(=O)NCCN4CCN(C(=O)CN5CCN(CC(=O)O)CCN(CC(=O)O)CCN(CC(=O)O)CC5)CC4)cc3)cc12`
Reply: 9.1

Task item: Param item: `N#C[C@@H]1CC(F)(F)CN1C(=O)CNC(=O)c1ccnc2ccc(-c3ccc(S(=O)(=O)CCCNC(=O)CN4CCN(CC(=O)O)CCN(CC(=O)O)CCN(CC(=O)O)CC4)cc3)cc12`
Reply: 9.1

Task item: Continue with O=C(O)CN1CCN(CC(=O)O)CCN(CC(=O)N2CCN(CCNC(=O)c3cccc(-c4ccc5c(C(=O)NCC(=O)N6CCC[C@H]6C(=O)c6nc7ccccc7o6)ccnc5c4)c3)CC2)CCN(CC(=O)O)CC1 [drawing 352]
Reply: 8.7

====

Target: recombinant human PREP (Homo sapiens)
Construct: purchased R&D systems 4308-SE
Sequence (P48147 1-710): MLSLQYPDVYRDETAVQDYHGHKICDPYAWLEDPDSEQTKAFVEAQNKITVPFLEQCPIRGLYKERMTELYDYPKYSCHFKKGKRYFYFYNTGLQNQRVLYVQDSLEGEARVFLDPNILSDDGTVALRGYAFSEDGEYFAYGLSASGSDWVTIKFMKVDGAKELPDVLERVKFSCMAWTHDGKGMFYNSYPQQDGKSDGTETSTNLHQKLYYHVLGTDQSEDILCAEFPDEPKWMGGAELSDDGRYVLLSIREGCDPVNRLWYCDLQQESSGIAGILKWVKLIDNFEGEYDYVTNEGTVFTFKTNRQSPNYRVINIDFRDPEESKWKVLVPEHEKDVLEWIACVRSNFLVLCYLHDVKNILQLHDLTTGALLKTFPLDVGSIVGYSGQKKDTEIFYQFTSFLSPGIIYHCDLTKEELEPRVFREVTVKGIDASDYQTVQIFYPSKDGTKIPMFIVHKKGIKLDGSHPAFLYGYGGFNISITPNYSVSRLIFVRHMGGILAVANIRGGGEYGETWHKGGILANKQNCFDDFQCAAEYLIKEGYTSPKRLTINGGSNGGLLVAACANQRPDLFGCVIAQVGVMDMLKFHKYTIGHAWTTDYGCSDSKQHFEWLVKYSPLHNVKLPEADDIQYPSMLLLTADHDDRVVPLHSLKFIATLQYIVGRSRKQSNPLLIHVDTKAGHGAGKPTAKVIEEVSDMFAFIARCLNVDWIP
Assay: PREP protease activity assay
Assay type: biochemical
Details: 50 µM Z-GP-AMC substrate
// pIC50 (PREP) lookup, one value per entry
# output: bare number, no unit

molecule="O=C(O)CN1CCN(CC(=O)O)CCN(CC(=O)N2CCN(CCNC(=O)c3cccc(-c4ccc5c(C(=O)NCC(=O)N6CCC[C@H]6C(=O)c6nc7ccccc7o6)ccnc5c4)c3)CC2)CCN(CC(=O)O)CC1 [drawing 352]" experimental_target="recombinant human PREP (Homo sapiens)" data_value=8.4
molecule="O=C(O)CN1CCN(CC(=O)O)CCN(CC(=O)N2CCN(CCNC(=O)c3ccc(-c4ccc5nccc(C(=O)NCC(=O)N6C[C@@H](F)C[C@H]6C(=O)c6nc7ccccc7o6)c5c4)cc3)CC2)CCN(CC(=O)O)CC1 [drawing 360]" experimental_target="recombinant human PREP (Homo sapiens)" data_value=7.3

Task item: Fill blank: measured pIC50 (PREP) of the molecule O=C(O)CN1CCN(CC(=O)O)CCN(CC(=O)N2CCN(CCCOc3ccc4nccc(C(=O)NCC(=O)N5C[C@@H](F)C[C@H]5C(=O)c5nc6ccccc6o5)c4c3)CC2)CCN(CC(=O)O)CC1 [drawing 358] is ____.
Reply: 7.8

====

biological target: Recombinant mouse FAP (Mus musculus); construct: purchased R&D systems 8647-SE; assay: FRET-based FAP protease activity assay (mouse); type: biochemical; settings: FRET-peptide substrate, 37°C
Sequence (P97321 whole entry): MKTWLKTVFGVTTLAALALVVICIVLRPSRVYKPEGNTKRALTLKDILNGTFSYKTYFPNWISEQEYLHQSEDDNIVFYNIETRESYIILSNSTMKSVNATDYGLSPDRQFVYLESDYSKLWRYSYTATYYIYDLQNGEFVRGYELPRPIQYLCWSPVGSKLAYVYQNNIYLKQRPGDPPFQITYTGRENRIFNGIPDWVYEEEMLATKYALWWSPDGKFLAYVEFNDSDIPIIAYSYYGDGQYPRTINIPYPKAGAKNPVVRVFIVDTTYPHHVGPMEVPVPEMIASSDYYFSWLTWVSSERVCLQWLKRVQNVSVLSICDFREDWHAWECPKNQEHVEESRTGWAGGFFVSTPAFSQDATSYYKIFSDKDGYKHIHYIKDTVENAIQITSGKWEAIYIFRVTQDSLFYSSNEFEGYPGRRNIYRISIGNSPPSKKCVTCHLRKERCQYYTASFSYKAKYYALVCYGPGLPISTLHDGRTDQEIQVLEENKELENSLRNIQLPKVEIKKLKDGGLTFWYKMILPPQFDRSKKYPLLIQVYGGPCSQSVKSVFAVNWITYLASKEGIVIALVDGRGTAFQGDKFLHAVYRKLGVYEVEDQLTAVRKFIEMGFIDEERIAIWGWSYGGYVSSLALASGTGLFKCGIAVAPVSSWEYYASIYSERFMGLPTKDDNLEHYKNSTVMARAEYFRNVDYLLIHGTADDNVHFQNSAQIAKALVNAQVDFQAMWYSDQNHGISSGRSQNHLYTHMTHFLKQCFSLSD
Recorded pIC50 (mouseFAP) values for a group of molecules are listed next.

Answered examples (5):
molecule="O=C(O)CN1CCN(CC(=O)O)CCN(CC(=O)N2CCN(CCNC(=O)c3cccc(-c4ccc5c(C(=O)NCC(=O)N6CCC[C@H]6C(=O)c6nc7ccccc7o6)ccnc5c4)c3)CC2)CCN(CC(=O)O)CC1 [drawing 352]" measure="pIC50 (mouseFAP)" data_value=8.9
molecule=N#C[C@@H]1CC(F)(F)CN1C(=O)CNC(=O)c1ccnc2ccc(-c3ccc(C(=O)NCCCNC(=O)CN4CCN(CC(=O)O)CCN(CC(=O)O)CCN(CC(=O)O)CC4)cc3)cc12 measure="pIC50 (mouseFAP)" data_value=9.2
molecule=N#C[C@@H]1CC(F)(F)CN1C(=O)CNC(=O)c1ccnc2ccc(-c3ccc(S(=O)(=O)CCCNC(=O)CN4CCN(CC(=O)O)CCN(CC(=O)O)CCN(CC(=O)O)CC4)cc3)cc12 measure="pIC50 (mouseFAP)" data_value=9
molecule=O=C(NCC(=O)N1CCC[C@H]1C(=O)CO)c1ccnc2ccccc12 measure="pIC50 (mouseFAP)" data_value=8.2
molecule="O=C(O)CN1CCN(CC(=O)O)CCN(CC(=O)N2CCN(CCCOc3ccc4nccc(C(=O)NCC(=O)N5CCC[C@H]5C(=O)c5nc6ccccc6o5)c4c3)CC2)CCN(CC(=O)O)CC1 [drawing 357]" measure="pIC50 (mouseFAP)" data_value=8.5

Task item: Sample `N#C[C@@H]1CCCN1C(=O)CNC(=O)c1cc[n+]([O-])c2ccccc12` — what was its pIC50 (mouseFAP)?
Reply: 7.5

====

molecular target: Recombinant human DPP4 (Homo sapiens, UniProt P27487); construct: purchased R&D systems 9168-SE; assay: DPP4 protease activity assay; assay type: biochemical; conditions: 20 µM GP-AMC substrate
Sequence (P27487 whole entry): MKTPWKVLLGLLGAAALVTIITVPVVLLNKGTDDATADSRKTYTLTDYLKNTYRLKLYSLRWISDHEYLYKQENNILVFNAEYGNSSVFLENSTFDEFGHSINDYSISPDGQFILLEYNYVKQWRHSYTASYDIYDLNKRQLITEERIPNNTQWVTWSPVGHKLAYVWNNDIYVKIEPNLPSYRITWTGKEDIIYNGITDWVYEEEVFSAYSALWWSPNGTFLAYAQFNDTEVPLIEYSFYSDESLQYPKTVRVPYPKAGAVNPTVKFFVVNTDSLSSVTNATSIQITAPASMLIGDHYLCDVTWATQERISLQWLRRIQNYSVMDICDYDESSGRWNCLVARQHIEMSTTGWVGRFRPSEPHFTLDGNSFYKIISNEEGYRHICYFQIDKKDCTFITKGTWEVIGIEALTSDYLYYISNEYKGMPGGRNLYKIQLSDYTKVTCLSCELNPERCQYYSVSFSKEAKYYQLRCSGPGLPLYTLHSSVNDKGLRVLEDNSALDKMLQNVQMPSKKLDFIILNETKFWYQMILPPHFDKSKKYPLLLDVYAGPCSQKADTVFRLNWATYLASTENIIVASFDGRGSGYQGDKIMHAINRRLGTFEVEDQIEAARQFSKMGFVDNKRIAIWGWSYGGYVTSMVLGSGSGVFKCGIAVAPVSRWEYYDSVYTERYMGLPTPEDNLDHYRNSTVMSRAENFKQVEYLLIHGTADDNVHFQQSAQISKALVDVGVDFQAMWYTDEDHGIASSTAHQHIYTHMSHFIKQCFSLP
Measure: pIC50 (DPP4)

Worked cases, answers included:
compound=N#C[C@@H]1CCCN1C(=O)CNC(=O)c1ccnc2ccc(-c3ccc(C(=O)NCCCNC(=O)CN4CCN(CC(=O)O)CCN(CC(=O)O)CCN(CC(=O)O)CC4)cc3)cc12 experimental_target="Recombinant human DPP4 (Homo sapiens, UniProt P27487)" data_value=<6
compound=O=C(O)CN1CCN(CC(=O)O)CCN(CC(=O)N2CCN(CCCOc3ccc4nccc(C(=O)NCC(=O)N5CC(F)(F)C[C@H]5C(=O)c5nc6ccccc6o5)c4c3)CC2)CCN(CC(=O)O)CC1 experimental_target="Recombinant human DPP4 (Homo sapiens, UniProt P27487)" data_value=<6

Task item: Record request: pIC50 (DPP4) value, item O=C(O)CN1CCN(CC(=O)O)CCN(CC(=O)N2CCN(CCNC(=O)c3ccc(-c4ccc5nccc(C(=O)NCC(=O)N6CCC[C@H]6C(=O)c6nc7ccccc7o6)c5c4)cc3)CC2)CCN(CC(=O)O)CC1 [drawing 354]
Reply: <6

====

biological target: Human recombinant FAP (Homo sapiens, UniProt Q12884); assay: FRET-based FAP protease activity assay (human); assay type: biochemical; set-up: purchased R&D systems 3715-SE; details: FRET-peptide substrate, 37°C, read-out: pIC50 (Activity) (converted)
# key: entry, value: IC50
Report the value in nM with no unit label.

Reference set (3 entries):
compound=N#C[C@@H]1CC(F)(F)CN1C(=O)CNC(=O)c1ccnc2c(OCC3CC3)cccc12 experimental_target="Human recombinant FAP (Homo sapiens, UniProt Q12884)" data_value=3.16
compound=O=C(NCC(=O)N1CCC[C@H]1B(O)O)c1ccnc2ccccc12 experimental_target="Human recombinant FAP (Homo sapiens, UniProt Q12884)" data_value=1.26
compound=N#C[C@@H]1CCCN1C(=O)CNC(=O)c1ccnc2ccc(-c3cccc(C(=O)O)c3)cc12 experimental_target="Human recombinant FAP (Homo sapiens, UniProt Q12884)" data_value=1.58

Task item: IC50 lookup needed for `CS(=O)(=O)c1ccc(-c2ccc3nccc(C(=O)NCC(=O)N4C[C@@H](F)C[C@H]4C#N)c3c2)cc1` , thanks.
Reply: 0.631

Task item: Consider next the compound O=C(NCC(=O)N1CCC[C@H]1C(=O)c1ncco1)c1ccnc2ccccc12 [drawing 297] in the same way.
Reply: 6.31

Task item: Check `CS(=O)(=O)c1ccc(-c2ccc3nccc(C(=O)NCC(=O)N4CC(F)(F)C[C@H]4C#N)c3c2)c(CO)c1` too.
Reply: 0.501
